// merged dataset of IC50 values, system = JNK3 (Homo sapiens, UniProt P53779), multiple refs

# annotated cases, reported IC50 shown
{"Compound": "CC1(C)C=CC(c2cnc3[nH]cc(-c4csc(C(=O)N5CCOCC5)n4)c3c2)=CC1", "IC50": "395 nM"}
{"Compound": "Cn1cc(-c2c[nH]c3ncc(C4=CCCC4)cc23)cn1", "IC50": "17 nM"}
{"Compound": "CC1CC=C(c2cnc3[nH]cc(-c4csc(C(=O)N5CCN(C)CC5)n4)c3c2)CC1 (stereo not shown)", "IC50": "105 nM"}

Data request: With JNK3 (Homo sapiens, UniProt P53779) as the test system, provide measured IC50 for this compound: `N#Cc1csc(NC(=O)Cn2c(=O)ccc3cc(C(F)(F)F)ccc32)c1-c1cncs1`
Data returned: 100 to 10000 nM

Data request: With JNK3 (Homo sapiens, UniProt P53779) as the test system, provide measured IC50 for this compound: `O=C(Nc1ccc2[nH]ccc2c1)c1cnc2[nH]cc(-c3ccoc3)c2c1`
Data returned: < 1000 nM

Data request: With JNK3 (Homo sapiens, UniProt P53779) as the test system, provide measured IC50 for this compound: `CCCc1cnc2[nH]cc(-c3cnn(C)c3)c2c1`
Data returned: < 100 nM

Data request: With JNK3 (Homo sapiens, UniProt P53779) as the test system, provide measured IC50 for this compound: `CC(=O)Nc1cccc(-c2cnc3[nH]cc(C(=O)c4cc(C)on4)c3c2)c1`
Data returned: ≤ 10000 nM

Data request: With JNK3 (Homo sapiens, UniProt P53779) as the test system, provide measured IC50 for this compound: `Cn1ccc(-c2sccc2NC(=O)Cc2cccc3ccccc23)n1`
Data returned: > 10000 nM

Data request: With JNK3 (Homo sapiens, UniProt P53779) as the test system, provide measured IC50 for this compound: `CS(=O)(=O)Nc1cc2c(-c3cc4ccccc4s3)n[nH]c2cc1F`
Data returned: 215 nM
